Consider the following compounds and their measured revertant His+ colonies TA102 readings.
Tested on: Salmonella enterica serovar Typhimurium TA102
Conditions: +S9, 15 µM
Lab note: record just the number, no unit beside it.

As a guide, the following entries are already answered.
>>> df
                                   compound  endpointvalue
0  CC(=O)Nc1ccc(Cl)cc1C(F)(F)C(=O)NCC[C@@H]1C[C@H](CC(=O)OC(C)(C)C)OC(C)(C)O1 [Compound 13c]            390
1  CC(=O)Nc1ccc(Br)cc1C(F)(F)C(=O)NCC[C@@H]1C[C@H](CC(=O)OC(C)(C)C)OC(C)(C)O1 [Compound 13d]            155
2  CC(=O)Nc1ccc(C)cc1C(F)(F)C(=O)NCC[C@@H]1C[C@H](CC(=O)OC(C)(C)C)OC(C)(C)O1 [Compound 13b]            386

// next item, revertant His+ colonies TA102 requested
Q: # return recorded revertant His+ colonies TA102 for input CC(=O)Nc1ccccc1C(F)(F)C(=O)NCC[C@@H]1C[C@H](CC(=O)OC(C)(C)C)OC(C)(C)O1 [Compound 13a]
Result: 399

###

Experiment: Salmonella/microsome assay, TA104
Settings: Salmonella enterica serovar Typhimurium, S. typhimurium TA104 with S9 mix, LC50 (bacterial cytotoxicity) TA104, presence of S9 mix
Listed below: CC50 at 30 min values for each entry.
Report as a plain number; the unit µM is understood.

                                   compound  endpointvalue
0  CC(=O)Nc1ccc(Cl)cc1C(F)(F)C(=O)NCC[C@@H]1C[C@H](CC(=O)OC(C)(C)C)OC(C)(C)O1 [Compound 13c]           1390

Q: Answer with reported CC50 at 30 min of CC(=O)Nc1ccccc1C(F)(F)C(=O)NCC[C@@H]1C[C@H](CC(=O)OC(C)(C)C)OC(C)(C)O1 [Compound 13a]
Result: 1280

###

System: Salmonella enterica serovar Typhimurium TA100
Assay: Salmonella/microsome assay, TA100
Conditions: −S9, 30 µM
revertant His+ colonies TA100 values, listed per item
Lab note: jot down the number only; don't add units.

Here's what some known entries look like.
>>> print(df.to_string())
                                   compound  endpointvalue
0  CC(=O)Nc1ccccc1C(F)(F)C(=O)NCC[C@@H]1C[C@H](CC(=O)OC(C)(C)C)OC(C)(C)O1 [Compound 13a]            139
1  CC(=O)Nc1ccc(Cl)cc1C(F)(F)C(=O)NCC[C@@H]1C[C@H](CC(=O)OC(C)(C)C)OC(C)(C)O1 [Compound 13c]            135

Q: Supply measured revertant His+ colonies TA100 of CC(=O)Nc1ccc(C)cc1C(F)(F)C(=O)NCC[C@@H]1C[C@H](CC(=O)OC(C)(C)C)OC(C)(C)O1 [Compound 13b] in your reply.
Result: 145

Q: Note revertant His+ colonies TA100 for the compound shown: CC(=O)Nc1ccc(Br)cc1C(F)(F)C(=O)NCC[C@@H]1C[C@H](CC(=O)OC(C)(C)C)OC(C)(C)O1 [Compound 13d]
Result: 93

###

Reported revertant His+ colonies TA104 values follow for various molecules
Test system: Salmonella enterica serovar Typhimurium TA104
Experiment: Salmonella/microsome assay, TA104
Conditions: +S9, 150 µM
Give the figure by itself; no unit, no explanation.

Example molecules with recorded revertant His+ colonies TA104:
>>> print(df.to_string())
                                   molecule  endpointvalue
0  CC(=O)Nc1ccc(Br)cc1C(F)(F)C(=O)NCC[C@@H]1C[C@H](CC(=O)OC(C)(C)C)OC(C)(C)O1 [Compound 13d]            541
1  CC(=O)Nc1ccccc1C(F)(F)C(=O)NCC[C@@H]1C[C@H](CC(=O)OC(C)(C)C)OC(C)(C)O1 [Compound 13a]            330
2  CC(=O)Nc1ccc(Cl)cc1C(F)(F)C(=O)NCC[C@@H]1C[C@H](CC(=O)OC(C)(C)C)OC(C)(C)O1 [Compound 13c]            305

Then there is this molecule:
Q: In one line, give reported revertant His+ colonies TA104 of the entry CC(=O)Nc1ccc(C)cc1C(F)(F)C(=O)NCC[C@@H]1C[C@H](CC(=O)OC(C)(C)C)OC(C)(C)O1 [Compound 13b] .
Result: 447

###

System: Salmonella enterica serovar Typhimurium TA104
Assay: Salmonella/microsome assay, TA104
Conditions: +S9, 30 µM
endpoint: revertant His+ colonies TA104
Please reply with the value in numeric form only.

>>> df
                                   compound  endpointvalue
0  CC(=O)Nc1ccccc1C(F)(F)C(=O)NCC[C@@H]1C[C@H](CC(=O)OC(C)(C)C)OC(C)(C)O1 [Compound 13a]            467
1  CC(=O)Nc1ccc(Br)cc1C(F)(F)C(=O)NCC[C@@H]1C[C@H](CC(=O)OC(C)(C)C)OC(C)(C)O1 [Compound 13d]            530
2  CC(=O)Nc1ccc(C)cc1C(F)(F)C(=O)NCC[C@@H]1C[C@H](CC(=O)OC(C)(C)C)OC(C)(C)O1 [Compound 13b]            421

Pending compound:
Q: For the compound CC(=O)Nc1ccc(Cl)cc1C(F)(F)C(=O)NCC[C@@H]1C[C@H](CC(=O)OC(C)(C)C)OC(C)(C)O1 [Compound 13c] , give its measured revertant His+ colonies TA104 value.
Result: 445

###

Tested on: Salmonella enterica serovar Typhimurium TA102
Settings: +S9, 3 µM
endpoint: revertant His+ colonies TA102
The answer should be written as a number, with no unit following it.

In [3]: df
Out[3]:
                                   compound                       endpoint  endpointvalue
0  CC(=O)Nc1ccc(Br)cc1C(F)(F)C(=O)NCC[C@@H]1C[C@H](CC(=O)OC(C)(C)C)OC(C)(C)O1 [Compound 13d]  revertant His+ colonies TA102            153
1  CC(=O)Nc1ccc(Cl)cc1C(F)(F)C(=O)NCC[C@@H]1C[C@H](CC(=O)OC(C)(C)C)OC(C)(C)O1 [Compound 13c]  revertant His+ colonies TA102            392
2  CC(=O)Nc1ccccc1C(F)(F)C(=O)NCC[C@@H]1C[C@H](CC(=O)OC(C)(C)C)OC(C)(C)O1 [Compound 13a]  revertant His+ colonies TA102            384

Below: the item to evaluate.
Q: Return value of revertant His+ colonies TA102 for input CC(=O)Nc1ccc(C)cc1C(F)(F)C(=O)NCC[C@@H]1C[C@H](CC(=O)OC(C)(C)C)OC(C)(C)O1 [Compound 13b] , no commentary.
Result: 365

###

Tested on: P. falciparum parasites (W2 clone) chloroquine-resistant
Assay: Antiplasmodial activity, anti-HRPII assay
Type: cell-based, Plasmodium falciparum
Details: LC50 (HepG2)/EC50 (P. falciparum)
endpoint: SI

Some molecules with recorded SI:
In [3]: df
Out[3]:
                                   molecule                                targetdesc  endpoint  endpointvalue
0  CC(=O)Nc1ccc(Cl)cc1C(F)(F)C(=O)NCC[C@@H]1C[C@H](CC(=O)OC(C)(C)C)OC(C)(C)O1 [Compound 13c]  P. falciparum parasites (W2 clone) chloroquine-resistant        SI            >85
1  CC(=O)Nc1ccccc1C(F)(F)C(=O)NCC[C@@H]1C[C@H](CC(=O)OC(C)(C)C)OC(C)(C)O1 [Compound 13a]  P. falciparum parasites (W2 clone) chloroquine-resistant        SI       Inactive
2  CC(=O)Nc1ccc(Br)cc1C(F)(F)C(=O)NCC[C@@H]1C[C@H](CC(=O)OC(C)(C)C)OC(C)(C)O1 [Compound 13d]  P. falciparum parasites (W2 clone) chloroquine-resistant        SI       Inactive
3  CC(=O)Nc1ccc(Br)cc1C(F)(F)C(=O)NCC[C@@H](O)C[C@@H](O)CC(=O)O [Compound 14d]  P. falciparum parasites (W2 clone) chloroquine-resistant        SI       Inactive
4  CC(=O)Nc1ccc(C)cc1C(F)(F)C(=O)NCC[C@@H](O)C[C@@H](O)CC(=O)O [Compound 14b]  P. falciparum parasites (W2 clone) chloroquine-resistant        SI       Inactive
5  CC(=O)Nc1ccc(Cl)cc1C(F)(F)C(=O)NCC[C@@H](O)C[C@@H](O)CC(=O)O [Compound 14c]  P. falciparum parasites (W2 clone) chloroquine-resistant        SI       Inactive
6  CC(=O)Nc1ccc(C)cc1C(F)(F)C(=O)NCC[C@@H]1C[C@H](CC(=O)OC(C)(C)C)OC(C)(C)O1 [Compound 13b]  P. falciparum parasites (W2 clone) chloroquine-resistant        SI            >70

Next item in the queue.
Q: Answer with the recorded SI for the molecule listed here: CC(=O)Nc1ccccc1C(F)(F)C(=O)NCC[C@@H](O)C[C@@H](O)CC(=O)O [Compound 14a]
Result: Inactive

Cited source: paper PMC10301432
